Data provenance: patent US9938265B2

measurement-target: GLS1 (Homo sapiens (Human))
assay: GLS Enzyme Potency Assay (Glutamate Oxidase/AmplexRed coupled assay)
Type: biochemical
measurement-conditions: 6His tagged GLS protein (amino acids 63-669), glutamine substrate; read-out: Assay a) enz IC50
property-measured: pIC50
Give only the number. pIC50 is defined as minus log10 of concentration in molar units.

Known pIC50 results, listed for orientation:
*Q* Tell me the measured pIC50 of COC(C(=O)Nc1nnc(N[C@@H]2CCN(c3ccc(F)nn3)C2)s1)c1cccc(OC(F)(F)F)c1 (single isomer, unassigned) [Example 18] , please.
*A* 7.19

*Q* Tell me the measured pIC50 of CO[C@H](C(=O)Nc1nnc(N[C@@H]2CCN(c3ccc(C)nn3)C2)s1)c1ccc(F)cc1 (single isomer, unassigned) , please.
*A* 6.81

Others:
*Q* Tell me the measured pIC50 of CCO[C@H](C(=O)Nc1nnc(N[C@@H]2CCN(c3ccc(C)nn3)C2)s1)c1cccc(OC)c1 (single isomer, unassigned) , please.
*A* 7.10

*Q* Tell me the measured pIC50 of COc1cccc([C@H](OC)C(=O)Nc2nnc(N[C@@H]3CCN(c4ccc(C)nn4)C3)s2)c1 (single isomer, unassigned) , please.
*A* 7.26

*Q* Tell me the measured pIC50 of COc1ccc(C(OC)C(=O)Nc2nnc(N[C@@H]3CCN(c4ccc(C)nn4)C3)s2)cc1 (stereo partly drawn) [Example 30] , please.
*A* 6.92

*Q* Tell me the measured pIC50 of CCOC(C(=O)Nc1nnc(N[C@@H]2CCN(c3ccc(F)nn3)C2)s1)c1ccc(F)cc1 (single isomer, unassigned) [Example 25] , please.
*A* 5.96

###

measurement-target: GLS1 (Homo sapiens (Human), UniProt O94925)
Sequence (O94925 63-669): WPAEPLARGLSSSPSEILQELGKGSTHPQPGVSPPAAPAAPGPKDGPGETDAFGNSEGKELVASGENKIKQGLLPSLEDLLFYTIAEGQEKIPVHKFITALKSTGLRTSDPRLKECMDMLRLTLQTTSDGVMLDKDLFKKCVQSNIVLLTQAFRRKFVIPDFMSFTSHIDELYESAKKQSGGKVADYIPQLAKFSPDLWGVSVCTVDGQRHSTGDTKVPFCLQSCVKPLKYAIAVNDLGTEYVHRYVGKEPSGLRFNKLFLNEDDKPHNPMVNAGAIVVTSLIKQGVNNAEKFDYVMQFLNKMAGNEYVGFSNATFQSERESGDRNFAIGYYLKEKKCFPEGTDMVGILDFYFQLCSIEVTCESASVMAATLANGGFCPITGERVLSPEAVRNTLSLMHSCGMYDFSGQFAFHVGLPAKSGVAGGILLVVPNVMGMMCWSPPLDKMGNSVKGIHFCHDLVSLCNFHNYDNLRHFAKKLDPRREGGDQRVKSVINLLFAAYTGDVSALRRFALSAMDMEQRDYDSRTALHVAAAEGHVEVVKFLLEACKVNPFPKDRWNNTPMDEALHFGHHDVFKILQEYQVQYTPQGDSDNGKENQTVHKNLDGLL
assay: GLS Enzyme Potency Assay (Glutamate Oxidase/AmplexRed coupled assay)
Type: biochemical
measurement-conditions: read-out: Assay a) enz IC50
Please use Criterion met for IC50 under 400 nM and Criterion not met for everything else, ties included.

*Q* Please indicate whether the reported IC50 of COc1ccc([C@H](OC)C(=O)Nc2nnc(N[C@@H]3CCN(c4cc(Cl)cnn4)C3)s2)cc1 (single isomer, unassigned) is strictly below 400 nM.
*A* Criterion met

*Q* Please indicate whether the reported IC50 of CO[C@H](C(=O)Nc1nnc(N[C@@H]2CCN(c3ccc(C)nn3)C2)s1)c1cccc(OC(F)(F)F)c1 (single isomer, unassigned) is strictly below 400 nM.
*A* Criterion met

*Q* Please indicate whether the reported IC50 of CO[C@H](C(=O)Nc1nnc(N[C@@H]2CCN(c3ccc(C)nn3)C2)s1)c1ccc(F)cc1 (single isomer, unassigned) is strictly below 400 nM.
*A* Criterion not met

Others:
*Q* Please indicate whether the reported IC50 of CCO[C@H](C(=O)Nc1nnc(N[C@@H]2CCN(c3ccc(C)nn3)C2)s1)c1cccc(OC)c1 (single isomer, unassigned) is strictly below 400 nM.
*A* Criterion met

###

measurement-target: cellular GLS activity (Homo sapiens (Human), UniProt O94925)
Sequence (O94925 73-669): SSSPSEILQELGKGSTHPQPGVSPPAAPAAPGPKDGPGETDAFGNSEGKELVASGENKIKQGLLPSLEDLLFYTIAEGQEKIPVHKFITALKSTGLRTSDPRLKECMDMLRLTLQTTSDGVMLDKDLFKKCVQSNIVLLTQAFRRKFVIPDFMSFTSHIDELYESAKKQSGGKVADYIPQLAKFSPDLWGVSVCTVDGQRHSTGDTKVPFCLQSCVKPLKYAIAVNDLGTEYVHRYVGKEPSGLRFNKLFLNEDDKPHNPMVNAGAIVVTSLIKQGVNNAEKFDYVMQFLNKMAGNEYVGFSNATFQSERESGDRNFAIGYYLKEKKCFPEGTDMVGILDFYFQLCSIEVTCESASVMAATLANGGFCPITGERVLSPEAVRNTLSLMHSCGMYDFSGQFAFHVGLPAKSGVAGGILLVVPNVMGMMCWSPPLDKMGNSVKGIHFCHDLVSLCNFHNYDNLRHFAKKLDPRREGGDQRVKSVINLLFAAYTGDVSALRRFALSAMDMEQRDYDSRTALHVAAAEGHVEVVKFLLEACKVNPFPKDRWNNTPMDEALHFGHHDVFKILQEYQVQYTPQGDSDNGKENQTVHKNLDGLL
assay: GLS Cell Potency Assay (PC3 coupled assay measuring cellular glutamate depletion)
measurement-conditions: PC3 cells, 6 h incubation, glutamate depletion; read-out: Assay b) GLS cell MOA Mean IC50
Protocol: The following assays were used to measure the effects of the compounds described herein: a) GLS Enzyme Potency Assay; b) GLS Cell Potency Assay; c) GLS Cell Proliferation Assay. During the description of the assays, generally: • i. […] IC50 values were calculated using a smart fitting model in Genedata. […] Compounds were assessed for their potential to inhibit cellular GLS activity by use of a PC3 coupled assay measuring cellular glutamate depletion. […]
property-measured: IC50 (nM)
A number alone suffices; assume nM.

*Q* Tell me the measured IC50 of CCO[C@H](C(=O)Nc1nnc(N[C@@H]2CCN(c3ccc(C)nn3)C2)s1)c1cccc(OC)c1 (single isomer, unassigned) [Example 4(a)] , please.
*A* 0.457

*Q* Tell me the measured IC50 of CO[C@H](C(=O)Nc1nnc(N[C@@H]2CCN(c3cc(C)cnn3)C2)s1)c1ccccc1 [Example 13] , please.
*A* 0.658

*Q* Tell me the measured IC50 of COc1cc(C(OC)C(=O)Nc2nnc(N[C@@H]3CCN(c4ccc(F)nn4)C3)s2)ccc1F (single isomer, unassigned) [Example 24] , please.
*A* 1.01

*Q* Tell me the measured IC50 of COC(C(=O)Nc1nnc(N[C@@H]2CCN(c3ccc(F)nn3)C2)s1)c1cccc(OC(F)(F)F)c1 (single isomer, unassigned) [Example 18] , please.
*A* 4.91

*Q* Tell me the measured IC50 of COc1ccc([C@H](OC)C(=O)Nc2nnc(N[C@@H]3CCN(c4cc(Cl)cnn4)C3)s2)cc1 (single isomer, unassigned) [11(b)] , please.
*A* 10.5

Others:
*Q* Tell me the measured IC50 of COc1ccc(C(OC)C(=O)Nc2nnc(N[C@@H]3CCN(c4ccc(F)nn4)C3)s2)cc1 (single isomer, unassigned) [Example 22] , please.
*A* 2.45

*Q* Tell me the measured IC50 of CO[C@H](C(=O)Nc1nnc(N[C@@H]2CCN(c3ccc(C)nn3)C2)s1)c1ccccc1 [Example 14] , please.
*A* 1.04

*Q* Tell me the measured IC50 of COC(C(=O)Nc1nnc(N[C@@H]2CCN(c3ccc(F)nn3)C2)s1)c1ccc(F)cc1 (single isomer, unassigned) [Example 19] , please.
*A* 4.7

*Q* Tell me the measured IC50 of COc1cccc([C@H](OC)C(=O)Nc2nnc(N[C@@H]3CCN(c4ccc(C)nn4)C3)s2)c1 (single isomer, unassigned) [Example 1(a)] , please.
*A* 0.566

*Q* Tell me the measured IC50 of COc1ccc(C(OC)C(=O)Nc2nnc(N[C@@H]3CCN(c4ccc(C)nn4)C3)s2)cc1 (stereo partly shown) [Example 30] , please.
*A* 5.29

###

measurement-target: cellular GLS activity (Homo sapiens (Human), UniProt O94925)
assay: GLS Cell Potency Assay (PC3 coupled assay measuring cellular glutamate depletion)
measurement-conditions: PC3 cells, 6 h incubation, glutamate depletion; read-out: Assay b) GLS cell MOA Mean IC50
property-measured: pIC50
Give only the number. pIC50 is defined as minus log10 of concentration in molar units.

Known pIC50 results, listed for orientation:
*Q* Tell me the measured pIC50 of COc1ccc([C@H](OC)C(=O)Nc2nnc(N[C@@H]3CCN(c4cc(C)cnn4)C3)s2)cc1 (single isomer, unassigned) [33(b)] , please.
*A* 8.63

*Q* Tell me the measured pIC50 of CO[C@H](C(=O)Nc1nnc(N[C@@H]2CCN(c3ccc(C)nn3)C2)s1)c1cccc(OC(F)(F)F)c1 (single isomer, unassigned) [7(b)] , please.
*A* 7.90

Others:
*Q* Tell me the measured pIC50 of CCOC(C(=O)Nc1nnc(N[C@@H]2CCN(c3ccc(F)nn3)C2)s1)c1ccc(F)cc1 (single isomer, unassigned) [Example 25] , please.
*A* 7.20

*Q* Tell me the measured pIC50 of CO[C@H](C(=O)Nc1nnc(N[C@@H]2CCN(c3ccc(C)nn3)C2)s1)c1cccc(OC(F)F)c1 (single isomer, unassigned) [8(a)] , please.
*A* 8.89

*Q* Tell me the measured pIC50 of CO[C@H](C(=O)Nc1nnc(N[C@@H]2CCN(c3ccc(C)nn3)C2)s1)c1cccc(OC(F)F)c1 (single isomer, unassigned) [8(b)] , please.
*A* 7.66

*Q* Tell me the measured pIC50 of COc1cccc([C@H](OC)C(=O)Nc2nnc(N[C@@H]3CCN(c4ccc(C)nn4)C3)s2)c1 (single isomer, unassigned) [Example 1(b)] , please.
*A* 6.86

###

Overview of recorded log10 IC50 for various molecules
measurement-target: GLS1 (Homo sapiens (Human), UniProt O94925)
assay: GLS Enzyme Potency Assay (Glutamate Oxidase/AmplexRed coupled assay)
Type: biochemical
measurement-conditions: 6His tagged GLS protein (amino acids 63-669), glutamine substrate; read-out: Assay a) enz IC50
A difference of one corresponds to tenfold IC50; all values are log10 with IC50 in nM.

*Q* Tell me the measured log10 IC50 of COc1ccc(C(OC)C(=O)Nc2nnc(N[C@@H]3CCN(c4ccc(C)nn4)C3)s2)cc1 (stereo partly shown) [Example 29] , please.
*A* 3.11

*Q* Tell me the measured log10 IC50 of COc1cc(C(OC)C(=O)Nc2nnc(N[C@@H]3CCN(c4ccc(F)nn4)C3)s2)ccc1F (single isomer, unassigned) [Example 24] , please.
*A* 1.85

*Q* Tell me the measured log10 IC50 of CO[C@H](C(=O)Nc1nnc(N[C@@H]2CCN(c3ccc(C)nn3)C2)s1)c1cccc(OC(F)F)c1 (single isomer, unassigned) [8(b)] , please.
*A* 2.81

*Q* Tell me the measured log10 IC50 of CO[C@H](C(=O)Nc1nnc(N[C@@H]2CCN(c3ccc(C)nn3)C2)s1)c1cccc(OC(F)(F)F)c1 (single isomer, unassigned) , please.
*A* 1.98

*Q* Tell me the measured log10 IC50 of COc1cc(C(OC)C(=O)Nc2nnc(N[C@@H]3CCN(c4ccc(F)nn4)C3)s2)ccc1F (single isomer, unassigned) [Example 23] , please.
*A* 2.42

Others:
*Q* Tell me the measured log10 IC50 of COc1ccc(C(OC)C(=O)Nc2nnc(N[C@@H]3CCN(c4ccc(F)nn4)C3)s2)cc1 (single isomer, unassigned) [Example 21] , please.
*A* 2.35

*Q* Tell me the measured log10 IC50 of COc1ccc([C@H](OC)C(=O)Nc2nnc(N[C@@H]3CCN(c4cc(C)cnn4)C3)s2)cc1 (single isomer, unassigned) [Example 33(a)] , please.
*A* 2.17
